The entries below come with measured protein stability index values attached.
B1: NEK8 (parent)
chain: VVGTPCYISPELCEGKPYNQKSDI

Variants of: B1
experimental_details: protein stability index of a GFP-peptide fusion (GPS, HEK-293T) (PSI 1-6); higher = more stable;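 further: lentivirally expressed fusions sorted by FACS into six bins by GFP to DsRed ratio, PSI derived from sequencing read proportions per bin multiplied by bin number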
condition_notes: c terminus: a fixed tail appended
Reply with the value as a number alone.

These solved cases illustrate the format of a correct answer.
mutant: P5A
protein stability index: 3.05
--
mutant: C6V
protein stability index: 2.71
--
mutant: I24R
protein stability index: 3.51
--
mutant: C6T
protein stability index: 3.26
--
mutant: C6I
protein stability index: 3.07

Which protein stability index is listed for P17S ?
3.02

Also, L12K please.
3.69
